Listed below are compounds with IC50 for human HIF-PHD2 (Homo sapiens, UniProt Q9GZT9), each taken from published literature.
Express your answer in µM, writing the number without its unit.

Request: Under human HIF-PHD2 (Homo sapiens, UniProt Q9GZT9), report IC50 for "CCOC(=O)C1(CNC(=O)c2ncc(C(=O)NC(c3ccccc3)c3ccccc3)c(O)n2)CC1"
Result: 0.0356

Request: Under human HIF-PHD2 (Homo sapiens, UniProt Q9GZT9), report IC50 for "O=C(O)c1cnn(-c2nc(O)c3c(cnn3Cc3ccc(-c4ccc(Cl)cc4Cl)cc3)n2)c1"
Result: 0.028

Request: Under human HIF-PHD2 (Homo sapiens, UniProt Q9GZT9), report IC50 for "O=C(O)c1cnn(-c2nc(O)c3c(cnn3CCc3cccc(Cl)c3)n2)c1"
Result: 0.02

Request: Under human HIF-PHD2 (Homo sapiens, UniProt Q9GZT9), report IC50 for "O=C(O)c1cnn(-c2nc(O)c3nn(Cc4ccccc4-c4ccccc4)cc3n2)c1"
Result: 0.0087

Request: Under human HIF-PHD2 (Homo sapiens, UniProt Q9GZT9), report IC50 for "O=C(O)c1cnn(-c2nc(O)c3c(cnn3CCOc3ccccc3)n2)c1"
Result: 0.012

Request: Under human HIF-PHD2 (Homo sapiens, UniProt Q9GZT9), report IC50 for "C[C@@H](c1ccccc1)n1ncc2nc(-n3cc(C(=O)O)cn3)nc(O)c21"
Result: 0.065

Request: Under human HIF-PHD2 (Homo sapiens, UniProt Q9GZT9), report IC50 for "CC(C)(C)Cn1nc(F)c2nc(-n3cc(C(=O)O)cn3)nc(O)c21"
Result: 0.13

Request: Under human HIF-PHD2 (Homo sapiens, UniProt Q9GZT9), report IC50 for "Cn1c(=O)c(C(=O)NCC(=O)O)c(O)c2cnc(N3CCOCC3)nc21"
Result: 0.24

Request: Under human HIF-PHD2 (Homo sapiens, UniProt Q9GZT9), report IC50 for "Cc1ccc([C@H](C)n2ncc3nc(-n4cc(C(=O)O)cn4)nc(O)c32)cc1C(F)(F)F"
Result: 0.12

Request: Under human HIF-PHD2 (Homo sapiens, UniProt Q9GZT9), report IC50 for "O=C(O)CNC(=O)c1c(O)c2c(n(Cc3ccc(C(F)(F)F)c(Br)c3)c1=O)COC2"
Result: 0.0033

Request: Under human HIF-PHD2 (Homo sapiens, UniProt Q9GZT9), report IC50 for COc1ccc(C(NC(=O)c2cnc(C(=O)NCCC(=O)O)nc2O)c2ccc3c(c2)CCO3)cc1 (centres unmarked)
Result: 0.0017

Request: Under human HIF-PHD2 (Homo sapiens, UniProt Q9GZT9), report IC50 for "CC(C)[C@H]1CC[C@H](C)C[C@H]1n1ncc2nc(-n3cc(C(=O)O)cn3)nc(O)c21"
Result: 0.081
